# assay system: T1, Recombinant His-tagged human CD36.ECD protein (Sino Biological) (human, UniProt P16671 30-439)
# T1 construct: Bought protein; also called hCD36.ECD; hCD36; not shown: His tag
# T1 sequence (P16671 30-439 limits assumed): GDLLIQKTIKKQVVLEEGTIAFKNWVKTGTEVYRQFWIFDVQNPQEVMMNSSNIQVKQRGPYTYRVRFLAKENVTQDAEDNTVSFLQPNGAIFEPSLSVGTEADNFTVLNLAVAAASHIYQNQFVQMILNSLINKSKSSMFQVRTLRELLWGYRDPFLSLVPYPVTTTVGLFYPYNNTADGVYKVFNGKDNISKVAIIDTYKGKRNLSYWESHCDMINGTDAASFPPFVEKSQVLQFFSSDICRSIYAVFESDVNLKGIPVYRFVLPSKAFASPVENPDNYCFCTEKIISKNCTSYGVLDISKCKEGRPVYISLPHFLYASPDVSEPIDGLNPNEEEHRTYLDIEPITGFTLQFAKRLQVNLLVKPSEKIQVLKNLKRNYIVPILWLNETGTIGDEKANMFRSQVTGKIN
# assay text: BLI (Octet), antibody on AHC sensor, His-tagged hCD36.ECD in solution, 1:1 fit
Overview of reported kon across a group of binders:
Please give a number only; it is taken to be in M⁻¹ s⁻¹.

117_DA57E (IgG4) (antibody, V domains shown, Human IgG4-S228P-FALA, kappa) VH: EVQLVESGGGLVQPGGSLRLSCAASGFTIDAFGIHWVRQAPGKGLEWVAWIAPYGGETYYADSVKGRFTISADTSKNTAYLQMNSLRAEDTAVYYCARSFFGYFDYWGQGTLVTVSS VL: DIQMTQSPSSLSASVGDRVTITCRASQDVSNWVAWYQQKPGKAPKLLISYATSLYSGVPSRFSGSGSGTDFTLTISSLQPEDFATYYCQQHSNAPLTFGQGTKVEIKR : 319000
12P109 (antibody, human IgG1, kappa, N297A, V domains shown, Full-length human IgG1-N297A, kappa; also called 12P109 (IgG1)) VH: EVQLVESGGGLVQPGGSLRLSCAASGFTISSFGIHWVRQAPGKGLEWVAWIAPYGGYTYYADSVKGRFTISADTSKNTAYLQMNSLRAEDTAVYYCARSFFGYFDYWGQGTLVTVSS VL: DIQMTQSPSSLSASVGDRVTITCRASQDVSNWVAWYQQKPGKAPKLLISTSTSLYSGVPSRFSGSGSGTDFTLTISSLQPEDFATYYCQQYYTLPFTFGQGTKVEIKR : 522000
117_30AA (IgG4) (antibody, V domains shown, Human IgG4-S228P-FALA, kappa) VH: EVQLVESGGGLVQPGGSLRLSCAASGFTIAAFGIHWVRQAPGKGLEWVAWIAPYGGYTYYADSVKGRFTISADTSKNTAYLQMNSLRAEDTAVYYCARSFFGYFDYWGQGTLVTVSS VL: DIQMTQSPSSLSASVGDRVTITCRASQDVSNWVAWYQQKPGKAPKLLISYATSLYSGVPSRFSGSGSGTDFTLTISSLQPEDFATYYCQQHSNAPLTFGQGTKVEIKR : 491000

Field request: kon | item: 117_30DE (IgG4) (antibody, V domains shown, Human IgG4-S228P-FALA, kappa) VH: EVQLVESGGGLVQPGGSLRLSCAASGFTIDSFGIHWVRQAPGKGLEWVAWIAPYGGETYYADSVKGRFTISADTSKNTAYLQMNSLRAEDTAVYYCARSFFGYFDYWGQGTLVTVSS VL: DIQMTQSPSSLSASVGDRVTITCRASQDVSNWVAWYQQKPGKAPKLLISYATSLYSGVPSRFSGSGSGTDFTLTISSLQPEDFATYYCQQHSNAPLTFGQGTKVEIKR
317000

What do we get for A8A (antibody, human IgG1, kappa, N297A, V domains shown, Full-length human IgG1-N297A, kappa; also called A8A (IgG1)) VH: EVQLVESGGGLVQPGGSLRLSCAASGFTISSFGIHWVRQAPGKGLEWVAWIAPYGGYTYYADSVKGRFTISADTSKNTAYLQMNSLRAEDTAVYYCARSFFGYFDYWGQGTLVTVSS VL: DIQMTQSPSSLSASVGDRVTITCRASQDVSNWVAWYQQKPGKAPKLLISYANSLYSGVPSRFSGSGSGTDFTLTISSLQPEDFATYYCQQHSNLPLTFGQGTKVEIKR ?
1.35e+06

What do we get for 117_30DA (IgG4) (antibody, V domains shown, Human IgG4-S228P-FALA, kappa) VH: EVQLVESGGGLVQPGGSLRLSCAASGFTIDAFGIHWVRQAPGKGLEWVAWIAPYGGYTYYADSVKGRFTISADTSKNTAYLQMNSLRAEDTAVYYCARSFFGYFDYWGQGTLVTVSS VL: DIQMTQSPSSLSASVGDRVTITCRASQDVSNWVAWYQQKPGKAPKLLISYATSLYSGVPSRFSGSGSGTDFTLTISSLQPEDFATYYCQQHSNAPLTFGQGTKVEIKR ?
339000

Measured values drawn from patent US20250206837A1 for this set.
